Target System: BRD3BD1 (Homo sapiens)
Construct: to the isolated BD1 and BD2 domains of BRD2, BRD3 and BRD4
Sequence (Q15059 34-140 limits assumed): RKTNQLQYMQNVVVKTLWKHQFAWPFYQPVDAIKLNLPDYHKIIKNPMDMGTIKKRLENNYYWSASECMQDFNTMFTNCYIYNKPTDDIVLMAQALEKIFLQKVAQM
Measurement Protocol: competitive FP assay, BRD3 BD1 -/+ FKBP12
Format: binding
Protocol Conditions: absence of FKBP12; read-out: Binding to BRD3BD1 - FKBP12 Kd
Provide the reported pKd of each item.
Numbers only, as −log10 of the molar value.

Molecule	Target System	Obs Value
Cc1sc2c(c1C)C(c1ccc(Cl)cc1)=NC(CC(=O)NCCOCCn1cc(COCC3CN(C(C)c4ccccn4)C(=O)C4CCCC3N4S(=O)(=O)c3cc(Cl)cc(Cl)c3)nn1)c1nnc(C)n1-2 (stereo not shown) [a1dj]	BRD3BD1 (Homo sapiens)	6.54

Hello, I would appreciate it if you could give pKd for each entry below.
1. Cc1sc2c(c1C)C(c1ccc(Cl)cc1)=NC(CC(=O)N1CCC3(CC1)CC(n1cc(C4CN(Cc5ccccn5)C(=O)C5CCCC4N5S(=O)(=O)c4cc(Cl)cc(Cl)c4)nn1)C3)c1nnc(C)n1-2 (stereo not shown) [a13c]
2. Cc1sc2c(c1C)C(c1ccc(C#CCNC(=O)COCCn3cc(C4CN(Cc5ccccn5)C(=O)C5CCCC4N5S(=O)(=O)c4cc(Cl)cc(Cl)c4)nn3)cc1)=NC(CC(=O)OC(C)(C)C)c1nnc(C)n1-2 (stereo not shown) [b3c]
3. Cc1sc2c(c1C)C(c1ccc(Cl)cc1)=NC(CC(=O)NCCOCCn1cc(COCC3CN(Cc4ccccn4)C(=O)C4CCCC3N4S(=O)(=O)c3cc(Cl)cc(Cl)c3)nn1)c1nnc(C)n1-2 (stereo not shown) [a1d]

1. 5.59
2. 7.46
3. 6.77
